- Target or system: Cathepsin B from bovine spleen (bovine, UniProt P07688 80-332)
- Assay: cell-based or functional assay
Recorded Cathepsin B inhibition test, 2 mM peptide by entry

Binder | Assay value
Ac-SSKSNNRHNNND-OH [Ac-SSKSNNRHNNND-OH] | 164

Value of measured Cathepsin B inhibition test, 2 mM peptide for the entry Ac-SSKSNNRH-OH [Ac-SSKSNNRH-OH] : 125

Value of measured Cathepsin B inhibition test, 2 mM peptide for the entry Ac-SSKSNNRH-OH (also: MGO-modified, site not given here) [MGO-modified Ac-SSKSNNRH-OH] : 102

Value of measured Cathepsin B inhibition test, 2 mM peptide for the entry Ac-SSKSNNRHNNND-OH (also: MGO-modified, site not given here) [MGO-modified Ac-SSKSNNRHNNND-OH] : 110

Value of measured Cathepsin B inhibition test, 2 mM peptide for the entry Ac-SSKSNNRHNN-OH (also: MGO-modified, site not given here) [MGO-modified Ac-SSKSNNRHNN-OH] : 104

Value of measured Cathepsin B inhibition test, 2 mM peptide for the entry Ac-SSKSNN-OH [Ac-SSKSNN-OH] : 129

Value of measured Cathepsin B inhibition test, 2 mM peptide for the entry Ac-SSKSNN-OH (also: MGO-modified, site not given here) [MGO-modified Ac-SSKSNN-OH] : 107

Value of measured Cathepsin B inhibition test, 2 mM peptide for the entry Ac-SSKSNNRHNN-OH [Ac-SSKSNNRHNN-OH] : 131
